# Tested on: Pseudomonas aeruginosa 6067 [DSM 18987]
# test-protocol: MIC, broth microdilution (NCCLS M7-A6)
# Type: cell-based
# condition-label: P. aeruginosa 6067; combinations of equal weights; IsoSensiTest Broth + 16 μg/mL 2,2'-bipyridyl
measure-name: Minimum Inhibitory Concentration

* C[C@H]1[C@H](NC(=O)/C(=N\OCc2cc(=O)c(O)cn2O)c2cccs2)C(=O)N1S(=O)(=O)O [Compound A] | >64 mg/L

**Query** Supply Minimum Inhibitory Concentration value. Item: C[C@H]1[C@H](NC(=O)/C(=N/OCc2cc(=O)c(O)cn2O)c2cccs2)C(=O)N1S(=O)(=O)O [Compound B]
**Result** >64 mg/L

**Query** Supply Minimum Inhibitory Concentration value. Item: C[C@@H](O)[C@H]1C(=O)N2C(C(=O)O)=C(S[C@@H]3CN[C@H](C(=O)Nc4cccc(C(=O)O)c4)C3)[C@H](C)[C@H]12 [Ertapenem]
**Result** >32 mg/L

Source listed as patent US8809315B2.
